MEASUREMENT_TARGET: T1, monkey GPC3-His protein (monkey)
T1 construct: Bought recombinant protein; also called monkey GPC3 protein
RUN_DESCRIPTION: ELISA, monkey GPC3-His coated;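 note: Plate-coated antigen at 1 µg/mL, antibody binding 2 h at 37 °C, detected with HRP-labeled secondary antibody and TMB, absorbance at 450 nm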
The binders listed here are annotated with their OD450 at 0.001 nM.

BINDER | OD450 at 0.001 nM / OD450
F1.111.11 (antibody, human IgG1, kappa, V domains shown, Human-murine chimeric antibody) VH: EVQLQQSGPELVKPGASVKISCKASGYTFTDYYMNWVKQSHGKSLEWIGDIYPNNGDTTYNQRFKGKATLTVDKSSSTAYMELRSLASEDSAVYYCACPYNNPFGYWGQGTLVTVSA VL: DVVMTQTPLSLPVSLGDQASISCRSSQSLVHSNGNTYLHWYLQKPGQSPKLLIYKVSNRFSGVPDRFSGSGSGTDFTLKISRVEAEDLGVYFCSQSTHVPWTFGGGTKLEIKR | 0.11
F1.73.9 (antibody, human IgG1, kappa, V domains shown, Human-murine chimeric antibody) VH: QVQLKQSGAELVRPGASVKLSCKASGYTFTDYYINWVKQRPGQGLEWIARIYPGSGNTYYNEKFKGKATLTAEKSSSTAYMQFSSLTSEDSAVYFCACSTYYTMDYWGQGTSVTVSS VL: QIVLTQSPAIMSASLGERVTMTCTASSGVSSSYLHWYQQKPGSSPKLWIYTTSNLASGVPARFSGSGSGTSYSLTISSMEAEDAATYYCHQYHRSPYTFGGGTKLEIKR | 0.06
F3.54.12 (antibody, human IgG1, kappa, V domains shown, Human-murine chimeric antibody) VH: QVQLQQSGAELVRPGASVKLSCKASGYTFTDYEMHWVKQTPVHGLEWIGAIDPETGNTAYIQKFKGKATLTTDKSSSTAYMELRSLTSEDSAVYYCTRFYSYSHWGQGTTLTVSS VL: DVVMTQTPLSLPVSLGDQASISCRSSQSLVHSNGNTYLHWYLQKPGQSPKLLIYKVSNRFSGVPDRFSGSSSGTDFTLKISRVEAEDLGVYFCSQNTHVPPTFGGGTKLEIKR | 0.1
